Assay: Liver microsome stability, dog
Conditions: dog, liver microsomes, in vitro CLint, dog liver microsomes, with NADPH; Table 5

Compound	microsomal CLint at 1 μM
O[C@@](CCN1CCCCC1)(c1ccccc1)C1CCCCC1 [(R)-THP, (R)-trihexyphenidyl]	146 µL/min/mg

* * *

Experiment: In vivo PK of (S)-BTC in rats: plasma, brain, CSF
Conditions: male, Sprague Dawley; plasma, rat, 10 mg/kg single oral dose, mean; read-out: MRTInf obs

Compound	MRT inf
C[C@@H](C[N+](C)(C)C)OC(N)=O.[Cl-] [(S)-BTC, (S)-bethanechol]	2.91 h

* * *

Assay: Liver microsome stability, human
Settings: human, liver microsomes, in vitro t1/2, human liver microsomes, with NADPH, 1 μM; Table 5

Compound	half-life at 1 μM (h)
O[C@@](CCN1CCCCC1)(c1ccccc1)C1CCCCC1 [(R)-THP, (R)-trihexyphenidyl]	1.1

* * *

Test: In vivo PK of (S)-BTC in rats: plasma, brain, CSF
Details: male, Sprague Dawley; brain, rat, 10 mg/kg single oral dose, mean
Description: 6-8-week-old male Sprague Dawley rats were fasted overnight prior to treatment. […] Treated animals were exsanguinated prior to brain collection, and brain samples were frozen at −80° C. […] Concentrations of compounds in the plasma, brain, CSF samples were analyzed using a standard LC-MS/MS method to detect parent test compound from each of the processed tissues. […]

Compound	Tmax / h
C[C@@H](C[N+](C)(C)C)OC(N)=O.[Cl-] [(S)-BTC, (S)-bethanechol]	8

* * *

Listed here: items and their measured CLint scaled at 1 μM.
Test: Liver microsome stability, rat
Details: rat, liver microsomes, Scale-up CLint, rat liver microsomes; Example 15, Table 20

Compound	CLint scaled at 1 μM (L/h/kg)
O[C@](CCN1CCCCC1)(c1ccccc1)C1CCCCC1 [(S)-THP, (S)-trihexyphenidyl]	112
O[C@@](CCN1CCCCC1)(c1ccccc1)C1CCCCC1 [(R)-THP, (R)-trihexyphenidyl]	320

* * *

Experiment: in vitro
Conditions: mouse, liver microsomes

Compound	microsomal CLint at 1 μM [µL/min/mg]
O[C@@](CCN1CCCCC1)(c1ccccc1)C1CCCCC1 [(R)-THP, (R)-trihexyphenidyl]	492
O[C@](CCN1CCCCC1)(c1ccccc1)C1CCCCC1 [(S)-THP, (S)-trihexyphenidyl]	249

* * *

Test: Whole blood stability, human
Conditions: human, whole blood

Compound	Endpoint Unit	half-life at 5 μM
CC(C)[N+](C)(CCOC(=O)C1c2ccccc2Oc2ccccc21)C(C)C [Propantheline]	min	31

* * *

Assay: Hepatocyte stability, dog
Details: cryopreserved hepatocytes

Compound	hepatocyte CLint at 1 μM / µL/min/1e6 cells
O[C@@](CCN1CCCCC1)(c1ccccc1)C1CCCCC1 [(R)-THP, (R)-trihexyphenidyl]	34.5

* * *

Molecular target: human M4 receptor (Homo sapiens)
Construct: expressed in transfected cells; host or cells: CHO (transient transfection)
Sequence (P08173 whole entry): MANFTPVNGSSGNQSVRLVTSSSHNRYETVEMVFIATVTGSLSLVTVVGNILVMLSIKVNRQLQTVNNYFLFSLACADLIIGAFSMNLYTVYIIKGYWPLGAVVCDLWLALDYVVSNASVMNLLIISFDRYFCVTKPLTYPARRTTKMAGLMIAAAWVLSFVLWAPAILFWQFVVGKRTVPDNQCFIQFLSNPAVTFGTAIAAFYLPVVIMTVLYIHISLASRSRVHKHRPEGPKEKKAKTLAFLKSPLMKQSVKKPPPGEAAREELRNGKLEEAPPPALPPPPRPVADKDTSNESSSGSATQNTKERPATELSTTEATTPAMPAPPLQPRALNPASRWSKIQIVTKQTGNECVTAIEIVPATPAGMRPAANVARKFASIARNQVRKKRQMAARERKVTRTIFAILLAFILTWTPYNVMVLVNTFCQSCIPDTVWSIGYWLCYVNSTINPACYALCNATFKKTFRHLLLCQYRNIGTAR
Test: Calcium flux assay (FLIPR), CHO cells transiently transfected with human M4
Assay type: cell-based
Settings: agonist mode
pEC50: −log10 of the molar value.

Compound	pEC50
C[C@H](C[N+](C)(C)C)OC(N)=O.[Cl-] [(R)-BTC, (R)-bethanechol, reference compound]	< 5.00
C[C@@H](C[N+](C)(C)C)OC(N)=O.[Cl-] [(S)-BTC, (S)-bethanechol]	< 5.00

* * *

Assay: Liver microsome stability, dog
Conditions: dog, liver microsomes, in vitro t1/2, dog liver microsomes; Example 15, Table 20
Measure: half-life at 1 μM (min)

Molecule	Measure	Endpoint Unit	Recorded Result
O[C@@](CCN1CCCCC1)(c1ccccc1)C1CCCCC1 [(R)-THP, (R)-trihexyphenidyl]	half-life at 1 μM	min	7.69
O[C@](CCN1CCCCC1)(c1ccccc1)C1CCCCC1 [(S)-THP, (S)-trihexyphenidyl]	half-life at 1 μM	min	5.72

Every entry's value here was drawn from patent US12290513B2.
